# target.of.assay: Human placenta or human platelet vitronectin receptor, αvβ3 (Homo sapiens, UniProt P05106+P06756)
# Construct: Human placenta or human platelet vitronectin receptor, αvβ3
# Sequence (P06756 31-889 limits assumed): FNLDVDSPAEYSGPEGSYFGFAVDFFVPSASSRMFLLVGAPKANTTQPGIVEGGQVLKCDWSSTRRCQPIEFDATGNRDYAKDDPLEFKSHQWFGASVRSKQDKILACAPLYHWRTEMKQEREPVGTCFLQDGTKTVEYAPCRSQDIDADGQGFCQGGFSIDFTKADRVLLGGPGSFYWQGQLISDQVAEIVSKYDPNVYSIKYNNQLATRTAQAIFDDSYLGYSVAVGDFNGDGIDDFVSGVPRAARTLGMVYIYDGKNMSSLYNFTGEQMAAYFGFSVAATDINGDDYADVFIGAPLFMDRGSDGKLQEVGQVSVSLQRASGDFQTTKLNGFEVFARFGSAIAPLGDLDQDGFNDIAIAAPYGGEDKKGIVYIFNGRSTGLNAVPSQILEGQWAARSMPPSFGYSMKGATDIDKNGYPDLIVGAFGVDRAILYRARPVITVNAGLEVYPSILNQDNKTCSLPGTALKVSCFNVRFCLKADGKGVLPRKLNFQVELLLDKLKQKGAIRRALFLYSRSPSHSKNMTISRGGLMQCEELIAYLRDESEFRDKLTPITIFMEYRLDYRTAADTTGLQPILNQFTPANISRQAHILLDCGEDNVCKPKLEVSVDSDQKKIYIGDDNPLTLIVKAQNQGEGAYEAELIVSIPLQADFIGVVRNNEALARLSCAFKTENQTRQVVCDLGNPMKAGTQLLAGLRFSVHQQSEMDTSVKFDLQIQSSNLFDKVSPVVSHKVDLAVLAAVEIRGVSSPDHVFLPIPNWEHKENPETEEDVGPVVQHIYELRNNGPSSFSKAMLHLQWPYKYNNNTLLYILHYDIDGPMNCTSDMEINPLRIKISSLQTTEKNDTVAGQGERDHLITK
# Sequence (P06756 891-1048 partner limits assumed): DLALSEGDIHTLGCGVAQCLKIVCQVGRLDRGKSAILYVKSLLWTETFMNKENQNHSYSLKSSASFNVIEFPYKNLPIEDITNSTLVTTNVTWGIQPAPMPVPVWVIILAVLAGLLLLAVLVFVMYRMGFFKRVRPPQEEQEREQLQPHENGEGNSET
# Sequence (P05106 27-788): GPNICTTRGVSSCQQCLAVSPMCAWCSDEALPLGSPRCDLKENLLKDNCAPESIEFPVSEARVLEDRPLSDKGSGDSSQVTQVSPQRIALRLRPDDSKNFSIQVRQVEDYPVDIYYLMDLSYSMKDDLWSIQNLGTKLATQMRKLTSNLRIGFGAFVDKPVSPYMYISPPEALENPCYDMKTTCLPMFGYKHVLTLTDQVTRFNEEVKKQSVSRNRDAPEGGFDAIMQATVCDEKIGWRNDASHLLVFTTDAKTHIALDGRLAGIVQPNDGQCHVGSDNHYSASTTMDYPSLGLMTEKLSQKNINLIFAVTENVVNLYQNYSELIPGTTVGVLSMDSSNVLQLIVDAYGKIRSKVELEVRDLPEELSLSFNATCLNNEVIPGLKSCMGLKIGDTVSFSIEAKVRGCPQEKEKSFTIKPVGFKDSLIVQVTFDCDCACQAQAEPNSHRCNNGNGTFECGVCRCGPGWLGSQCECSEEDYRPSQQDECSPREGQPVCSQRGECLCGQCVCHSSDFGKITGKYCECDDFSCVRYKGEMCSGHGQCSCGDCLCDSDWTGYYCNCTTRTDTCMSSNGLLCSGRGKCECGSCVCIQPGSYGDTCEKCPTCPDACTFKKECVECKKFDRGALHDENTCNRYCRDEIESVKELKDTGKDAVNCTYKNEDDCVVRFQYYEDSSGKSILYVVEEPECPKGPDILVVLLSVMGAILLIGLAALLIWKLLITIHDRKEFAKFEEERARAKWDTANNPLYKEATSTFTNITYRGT
# method.description: [3H]-SK&F-107260 vitronectin receptor binding assay
# condition: sample dissolved in 1:1 TBS:DMSO; 5 nM [3H]-SK&F-107260
value.type: Ki (nM)

CN1Cc2cc(C(=O)N(CCCCN)Cc3nc4ccccc4[nH]3)ccc2N[C@@H](CC(=O)O)C1=O 1.7
